System Tested: NanoLuc luciferase MAGL fusion protein in HEK293A cells (Homo sapiens, UniProt Q99685)
Construct: expressed in transfected cells
Sequence (Q99685 whole entry, the tested form may be a part): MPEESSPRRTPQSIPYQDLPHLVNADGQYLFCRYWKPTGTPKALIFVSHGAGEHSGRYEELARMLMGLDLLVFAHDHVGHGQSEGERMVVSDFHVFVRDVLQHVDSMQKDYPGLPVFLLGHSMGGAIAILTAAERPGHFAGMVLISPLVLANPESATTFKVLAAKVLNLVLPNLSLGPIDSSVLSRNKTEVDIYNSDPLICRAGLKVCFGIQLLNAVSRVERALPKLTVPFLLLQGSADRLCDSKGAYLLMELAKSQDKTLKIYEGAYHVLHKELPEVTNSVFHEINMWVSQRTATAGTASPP
Protocol Details: Cellular MAGL NanoBRET target engagement assay
Assay type: cell-based
Conditions: Table 2; mean of three independent measurements ± SD; read-out: HEK 293 nanoBRET IC50±SD
pIC50: −log10 of the molar value.

Molecule	Censor Symbol	pIC50
O=C(NCCCCCOc1ccccc1CC1CC2(C1)CN(C(=O)O[C@H](CO)C(F)(F)F)C2)O[C@H]1CC/C=C/CCC1	=	5.90
CN(C)c1ccc2c(c1)[Si](C)(C)c1cc(N(C)C)ccc1C21OC(=O)c2ccc(C(=O)NCCCCCOc3ccccc3CC3CC4(C3)CN(C(=O)N3CC5(COC(=O)N5)C3)C4)cc21 (centres unmarked)	=	6.55
C#CCCCC(=O)NCCOc1ccccc1CC1CC2(C1)CN(C(=O)OC(C(F)(F)F)C(F)(F)F)C2	=	7.00
O=C1NC2(CO1)CN(C(=O)N1CC3(CC(Cc4ccccc4OCCNc4ccc([N+](=O)[O-])c5c4NON5)C3)C1)C2	=	6.51
CN(C)c1ccc2c(c1)[Si](C)(C)c1cc(N(C)C)ccc1C21OC(=O)c2ccc(C(=O)NCCCCCOc3ccccc3CC3CC4(C3)CN(C(=O)OC(C(F)(F)F)C(F)(F)F)C4)cc21 (centres unmarked)	<	6.00

* * *

System Tested: mouse MAGL (Mus musculus, UniProt O35678)
Sequence (O35678 1-303): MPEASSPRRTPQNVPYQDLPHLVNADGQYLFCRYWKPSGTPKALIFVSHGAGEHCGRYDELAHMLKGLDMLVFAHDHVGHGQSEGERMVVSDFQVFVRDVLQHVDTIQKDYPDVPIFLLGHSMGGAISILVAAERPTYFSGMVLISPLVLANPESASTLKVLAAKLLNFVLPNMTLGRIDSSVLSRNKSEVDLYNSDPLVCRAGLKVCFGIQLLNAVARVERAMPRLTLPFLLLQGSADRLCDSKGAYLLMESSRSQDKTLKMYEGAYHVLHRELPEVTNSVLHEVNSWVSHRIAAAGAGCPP
Protocol Details: In vitro MAGL inhibition assay (2-AG hydrolysis followed by mass spectrometry)
Format: biochemical
Conditions: Supporting Information Tables S1-S5; read-out: IC50 mMAGL
pIC50: −log10 of the molar value.
Below, each entry is listed alongside its reported pIC50.
Measurement Kind: pIC50

Compound	System Tested	Number
O=C1COc2ccc(C(=O)N3CC(COCc4ccccc4OCCNC(=O)OCc4ccccc4)C3)cc2N1	mouse MAGL (Mus musculus, UniProt O35678)	7.46
O=C1CO[C@H]2CCN(C(=O)N3CC(COCc4ccccc4OCCNC(=O)OCc4ccccc4)C3)C[C@H]2N1	mouse MAGL (Mus musculus, UniProt O35678)	8.30
O=C1CO[C@H]2CCN(C(=O)N3CC(OCc4cccc(OCCNC(=O)OCc5ccccc5)c4)C3)C[C@H]2N1	mouse MAGL (Mus musculus, UniProt O35678)	7.42
O=C1CO[C@H]2CCN(C(=O)N3CCC4(CC3)CC(OCc3ccccc3OCCNC(=O)OCc3ccccc3)C4)C[C@H]2N1	mouse MAGL (Mus musculus, UniProt O35678)	7.68
CN(C)c1ccc2c(c1)[Si](C)(C)c1cc(N(C)C)ccc1C21OC(=O)c2ccc(C(=O)NCCCCCOc3ccccc3CC3CC4(C3)CN(C(=O)N3CC5(COC(=O)N5)C3)C4)cc21 (stereo not drawn)	mouse MAGL (Mus musculus, UniProt O35678)	9.81
O=C1CO[C@H]2CCN(C(=O)N3C[C@@H]4C(COCc5ccccc5OCCNC(=O)OCc5ccccc5)[C@@H]4C3)C[C@H]2N1 (stereo partly drawn)	mouse MAGL (Mus musculus, UniProt O35678)	6.50
